- measurementNotes: qHTS assay for small molecule agonists of the antioxidant response element (ARE) signaling pathway - cell viability counter screen (AID 743203); also: nearly all actives have a fitted effect of over 55% in size
- experimentalContext: ARE-bla HepG2 viability, CellTiter-Glo luminescence, 16 h; series mostly up to 73.3 µM
- Source text: National Center for Advancing Translational Sciences [NCATS] NIH Chemical Genomics Center [NCGC] U.S. Environmental Protection Agency [EPA] National Institutes of Environmental Health Sciences [NIEHS] National Toxicology Program [NTP] U.S. Food and Drug Administration [FDA] Oxidative stress has been implicated in the pathogenesis of a variety of diseases ranging from cancer to neurodegeneration. […] The activation of the report gene under culture conditions can be detected by fluorescence intensity. […]
Inconclusive results are not listed. Active and inactive are the calls of the source. Calls follow the shape of the full dose curve.
Field 'call' accepts active, inactive

Would you please look over these solved cases?
O=C(OCC(O)CO)c1ccccc1Nc1ccnc2cc(Cl)ccc12 (configuration not stated); inactive
Cc1ccco1; inactive
C1C[C@@H]2[C@H]3CC[C@H](C3)[C@@H]2C1; inactive
Nc1nnc(-c2ccc([N+](=O)[O-])o2)o1; active

QUERY: Per the records of this test, what outcome belongs to `CN1C(C(=O)Nc2ccccn2)=C(O)c2sccc2S1(=O)=O` ?
RESULT: inactive

QUERY: Which outcome was assigned to `CC(=O)Nc1ccc(C)cc1C` in this test?
RESULT: inactive

QUERY: So what was the verdict on CCCCC(CC)COP(=O)(O)O (configuration not stated) in this test?
RESULT: inactive

* * *

- targetUnderTest: Luciferin 4-monooxygenase (Photinus pyralis)
- measurementNotes: qHTS assay to identify small molecule inhibitors of firefly luciferase (AID 1224835); also: nearly all actives have a fitted effect of over 25% in size
- experimentalContext: purified P. pyralis luciferase, luminescence inhibition; series mostly up to 52.9 µM
Records with an inconclusive call do not appear. The source made the active and inactive calls. Calls come from the whole dose curve; as a rule, active = well fitted inhibition curve with a large enough effect in the repeat runs; inconclusive = weak or mixed curves; inactive = flat fitted curve, though single readings scatter.
# output must be one of TRUE = active, FALSE = inactive

QUERY: Fill in: this test's call for CC(CCC(=O)O)C(=O)O (stereo unspecified) is ___
RESULT: FALSE

QUERY: Which outcome was entered for the compound Nc1cccc2c1CN(C1CCC(=O)NC1=O)C2=O (stereo unspecified) in this test?
RESULT: FALSE

QUERY: # fetch the recorded call for `Cc1cscn1` here
RESULT: FALSE

QUERY: Hi, sorry to bother you, what did the test record for `O=C1c2ccccc2C(=O)C1(O)O` ?
RESULT: FALSE

QUERY: Called result for `CC(C)=CCC/C(C)=C/CC/C(C)=C/C(=O)OCC(=O)[C@@]1(O)CC[C@H]2[C@@H]3CCC4=CC(=O)C=C[C@]4(C)[C@H]3[C@@H](O)C[C@@]21C`
RESULT: FALSE

* * *

- measurementNotes: A CellTox Green Cytotoxicity Assay to monitor cytotoxicity in HepG2 cells - 8 hour (AID 1224890); also: nearly all actives have a fitted effect of over 45% in size
- experimentalContext: CellTox Green fluorescence; series mostly up to 76.8 µM
Inconclusive results are not listed. Activity calls are given as the source filed them. Calls follow the shape of the dose curve; as a rule, active = well fitted activation curve with a large enough effect in the repeat runs; inconclusive = weak or mixed curves; inactive = flat fitted curve, though single readings scatter.
Classes to choose from: y for active, n for inactive

C[C@@H]1CC(=O)NN=C1c1ccc(NN=C(C#N)C#N)cc1; n
C=CC(=O)OCC1CC2CC1C1CCC(COC(=O)C=C)C21 (stereo not given); n

QUERY: How was CCCCCC[C@@H](O)C/C=C\CCCCCCCC(=O)OCC(O)CO (stereo not given in full) classified in this test?
RESULT: n

QUERY: Answer briefly: the call reported for `Clc1ccc(Nc2nnc(Cc3ccncc3)c3ccccc23)cc1` in this assay.
RESULT: n

QUERY: Hi, sorry to bother you, what did the test record for `O=C(O)c1ccc(OCCCOc2ccc(C(=O)O)cc2)cc1` ?
RESULT: n

QUERY: Could you kindly confirm the outcome this assay logged for `O=C1Cc2ccccc2N1c1c(Cl)cccc1Cl` ?
RESULT: n

QUERY: Tell me the recorded outcome of this test for CCC1CO1 (stereo not given) .
RESULT: n
